Here the recorded Activity of a3b4 with peptide (percentage of the reference compound) is given for each entry.
- system name: α3β4 (Homo sapiens, UniProt P30926+P32297)
- Construct: host or cells: HEK293 or CHO
- Sequence (P30926 22-498): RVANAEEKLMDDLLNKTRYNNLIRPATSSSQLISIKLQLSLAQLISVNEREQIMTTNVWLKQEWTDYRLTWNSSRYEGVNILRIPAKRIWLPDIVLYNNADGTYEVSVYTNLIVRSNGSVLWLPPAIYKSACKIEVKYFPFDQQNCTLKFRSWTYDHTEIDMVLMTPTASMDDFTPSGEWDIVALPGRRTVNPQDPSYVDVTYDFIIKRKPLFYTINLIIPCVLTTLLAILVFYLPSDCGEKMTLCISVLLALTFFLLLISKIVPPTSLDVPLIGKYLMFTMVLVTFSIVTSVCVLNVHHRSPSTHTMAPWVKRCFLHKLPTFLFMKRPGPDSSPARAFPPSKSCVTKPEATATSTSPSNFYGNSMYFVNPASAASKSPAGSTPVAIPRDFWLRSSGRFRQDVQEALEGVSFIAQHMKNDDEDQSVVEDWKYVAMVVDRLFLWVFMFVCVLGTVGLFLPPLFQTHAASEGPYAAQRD
- Sequence (P32297 32-505): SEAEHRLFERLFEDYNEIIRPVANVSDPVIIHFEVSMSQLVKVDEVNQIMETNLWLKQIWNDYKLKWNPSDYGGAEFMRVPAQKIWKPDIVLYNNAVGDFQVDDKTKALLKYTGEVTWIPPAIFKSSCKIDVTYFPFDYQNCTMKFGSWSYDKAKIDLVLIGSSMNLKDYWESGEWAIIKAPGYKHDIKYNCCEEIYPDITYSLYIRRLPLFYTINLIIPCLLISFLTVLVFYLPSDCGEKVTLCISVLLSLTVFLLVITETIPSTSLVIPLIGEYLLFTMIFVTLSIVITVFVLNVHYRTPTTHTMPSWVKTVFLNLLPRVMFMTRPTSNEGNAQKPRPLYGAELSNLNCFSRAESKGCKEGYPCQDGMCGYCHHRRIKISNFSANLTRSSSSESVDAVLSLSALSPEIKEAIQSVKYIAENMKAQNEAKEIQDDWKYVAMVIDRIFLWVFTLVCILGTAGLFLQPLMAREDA
- experiment notes: Ion channel panel (IonWorks Barracuda): α3β4
- Type: cell-based
- assay context: peptide at 20 μM; 100% = no change, <100% = inhibition
measured property: Activity of a3b4 with peptide (percentage of the reference compound) (%)

[
  {
    "substance": "32 (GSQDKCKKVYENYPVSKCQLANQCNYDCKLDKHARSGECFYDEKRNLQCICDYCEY) [compound 32]",
    "reading": 96
  },
  {
    "substance": "21 (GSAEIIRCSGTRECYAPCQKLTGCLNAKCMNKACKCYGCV) [compound 21]",
    "reading": 93
  },
  {
    "substance": "23 (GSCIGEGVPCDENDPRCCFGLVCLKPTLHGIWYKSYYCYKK) [compound 23]",
    "reading": 93
  },
  {
    "substance": "9 (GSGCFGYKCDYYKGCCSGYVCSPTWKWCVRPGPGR) [compound 9]",
    "reading": 103
  },
  {
    "substance": "5 (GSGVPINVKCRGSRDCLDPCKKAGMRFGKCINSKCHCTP) [compound 5]",
    "reading": 90
  },
  {
    "substance": "30 (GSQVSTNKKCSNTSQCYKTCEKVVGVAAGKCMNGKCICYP) [compound 30]",
    "reading": 101
  },
  {
    "substance": "17 (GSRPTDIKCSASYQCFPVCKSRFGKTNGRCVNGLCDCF) [compound 17]",
    "reading": 97
  },
  {
    "substance": "34 (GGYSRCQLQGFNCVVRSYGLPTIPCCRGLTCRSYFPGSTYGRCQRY) [compound 34]",
    "reading": 97
  },
  {
    "substance": "25 (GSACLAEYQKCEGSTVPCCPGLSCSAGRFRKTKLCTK) [compound 25]",
    "reading": 91
  },
  {
    "substance": "20 (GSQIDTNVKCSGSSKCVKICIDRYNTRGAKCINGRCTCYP) [compound 20]",
    "reading": 94
  },
  {
    "substance": "4 (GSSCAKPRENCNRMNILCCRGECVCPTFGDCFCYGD) [compound 4]",
    "reading": 97
  },
  {
    "substance": "36 (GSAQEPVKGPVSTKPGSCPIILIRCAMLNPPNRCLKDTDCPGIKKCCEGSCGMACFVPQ) [compound 36]",
    "reading": 87
  },
  {
    "substance": "22 (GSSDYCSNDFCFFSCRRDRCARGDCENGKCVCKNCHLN) [compound 22]",
    "reading": 92
  },
  {
    "substance": "19 (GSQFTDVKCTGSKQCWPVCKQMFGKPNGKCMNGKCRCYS) [compound 19]",
    "reading": 97
  },
  {
    "substance": "16 (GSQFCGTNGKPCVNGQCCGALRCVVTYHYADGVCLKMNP) [compound 16]",
    "reading": 95
  },
  {
    "substance": "18 (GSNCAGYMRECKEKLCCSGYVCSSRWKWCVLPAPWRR) [compound 18]",
    "reading": 89
  },
  {
    "substance": "14 (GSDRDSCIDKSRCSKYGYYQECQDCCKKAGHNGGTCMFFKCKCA) [compound 14]",
    "reading": 93
  },
  {
    "substance": "15 (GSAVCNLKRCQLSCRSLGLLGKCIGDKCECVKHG) [compound 15]",
    "reading": 86
  },
  {
    "substance": "11 (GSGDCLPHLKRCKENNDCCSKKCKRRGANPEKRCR) [compound 11]",
    "reading": 96
  },
  {
    "substance": "3 (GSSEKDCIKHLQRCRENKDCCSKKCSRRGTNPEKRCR) [compound 3]",
    "reading": 92
  },
  {
    "substance": "38 (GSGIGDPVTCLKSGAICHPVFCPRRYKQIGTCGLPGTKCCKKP) [compound 38]",
    "reading": 92
  },
  {
    "substance": "29 (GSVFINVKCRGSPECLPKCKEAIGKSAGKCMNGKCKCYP) [compound 29]",
    "reading": 98
  },
  {
    "substance": "39 (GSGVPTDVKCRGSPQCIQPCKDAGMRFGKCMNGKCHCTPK) [compound 39]",
    "reading": 93
  }
]
